Hey, just so you know, these numbers are from ChEMBL document CHEMBL3400103.

UniProt:Q9YQ12: recorded IC50 for assorted compounds
Sequence (Q9YQ12 whole entry): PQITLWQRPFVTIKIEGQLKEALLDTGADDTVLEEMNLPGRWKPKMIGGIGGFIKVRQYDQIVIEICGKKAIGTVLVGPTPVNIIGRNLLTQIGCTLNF
OBSERVABLE: IC50 (nM)

[
  {
    "COMPOUND": "COc1ccc(S(=O)(=O)N(CC(C)C)C[C@@H](O)[C@H](Cc2ccccc2)NC(=O)CN(CC(=O)N(C)C)c2c(C)cccc2C)cc1",
    "OBSERVABLE": "IC50",
    "UNIT_OF_MEASUREMENT": "nM",
    "TEST_VALUE": 180
  },
  {
    "COMPOUND": "Cc1cccc(C)c1N(CC(=O)N[C@@H](Cc1ccccc1)[C@@H](O)CN(CC(C)C)S(=O)(=O)c1ccc(CO)cc1)CC(=O)N1CCOCC1",
    "OBSERVABLE": "IC50",
    "UNIT_OF_MEASUREMENT": "nM",
    "TEST_VALUE": 8940
  }
]

I = Cc1cccc(C)c1N(CC(=O)N[C@@H](Cc1ccccc1)[C@H](O)CN(CC(C)C)S(=O)(=O)c1ccc(CO)cc1)CC(=O)N(C)C
II = Cc1cccc(C)c1N(CC(=O)N[C@@H](Cc1ccccc1)[C@H](O)CN(CC(C)C)S(=O)(=O)c1ccc(N)cc1)CC(=O)N(C)C
III = COc1ccc(N(CC(=O)N[C@@H](Cc2ccccc2)[C@H](O)CN(CC(C)C)S(=O)(=O)c2ccc(N)cc2)CC(=O)N(C)C)cc1
In this exercise, place the 3 compounds in ascending sequence of their recorded IC50. Kindly provide the labels arranged according to the requested ordering. III, I, II
(III: 140 nM, I: 290 nM, II: 1360 nM)
